IC50 for IRAK4 (Homo sapiens (Human)), merged from several publications.
outcome-measure: IC50 (nM)

INSERT INTO assay_data (compound, experimental_system, outcome_measure, op, assay_result) VALUES
  ('CCOC(=O)N1CCC(NC(=O)c2cnc3ccc(-c4cn[nH]c4)cc3c2NC(C)C)CC1', 'IRAK4 (Homo sapiens (Human))', 'IC50', '=', 13),
  ('CN(C)[C@H]1CC[C@H](Nc2ncnc3ccc(-c4cncc(C(=O)NC(C)(C)C)c4)cc23)CC1', 'IRAK4 (Homo sapiens (Human))', 'IC50', '=', 129),
  ('CC(C)Nc1cc(-n2ncc3cc(C#N)cnc32)ncc1-c1cn(C2CN(C(c3ccccc3)c3ccccc3)C2)nn1', 'IRAK4 (Homo sapiens (Human))', 'IC50', '=', 235),
  ('C/C=C/COC[C@H]1CCc2sc3ncnc(O[C@H]4CC[C@H](N(C)C)CC4)c3c21', 'IRAK4 (Homo sapiens (Human))', 'IC50', '<', 5000),
  ('Cc1cc(=O)n2nc1OCCC(O)Cn1c(nc3ccccc31)NC(=O)c1cccc(c1)C2 (centres unmarked)', 'IRAK4 (Homo sapiens (Human))', 'IC50', '<', 100),
  ('COc1cnccc1-c1ccc2ncnc(N[C@H]3CC[C@H](N(C)C)CC3)c2c1', 'IRAK4 (Homo sapiens (Human))', 'IC50', '=', 71);

###

Ok so here's the combined literature set: IC50 for IRAK4 (Homo sapiens (Human)).
outcome-measure: IC50 (nM)

INSERT INTO assay_data (compound, op, assay_result) VALUES
  ('CC(C)Nc1cc(-n2ncc3cc(C#N)cnc32)ncc1-c1cn(C2CN(C(C)C)C2)nn1', '=', 2),
  ('CN(C)c1ccc(NC(=O)CCCc2cn(-c3ccccc3)c(NC(=O)c3cccc(-c4cnn(C)c4)c3)n2)cc1', '<', 50),
  ('O=C(Nc1nc(CCCCCCN2CCCCC2)cn1-c1ccccc1)c1cccc(-c2cn[nH]c2)c1', '<', 50),
  ('CC(C)Nc1cc(Nc2ccc3ncsc3c2)ncc1C(=O)NC[C@@H](F)C(O)C1CC1 (stereo partly shown)', '=', 5.2),
  ('COc1cc2nn(C3CCN(CCCCN4CCC5(CC4)CCN(C(=O)c4ccc(OC)c(N6CCC(=O)NC6=O)c4)CC5)CC3)cc2cc1NC(=O)c1cccc(C(F)(F)F)n1', '=', 2.7),
  ('Cc1cc(Nc2nc(O[C@H]3CCOC3)c3c(ccn3-c3ccoc3)n2)sn1', '≤', 100);

###

Literature roundup of UniProtKB Q9NWZ3 data, read-out pIC50.
pIC50: −log10 of the molar value.
outcome-measure: pIC50

INSERT INTO results (input_smiles, outcome_measure, op, assay_result) VALUES
  ('Cc1nc(Nc2cccnc2)nc(N[C@@H]2C[C@H](CO)[C@@H](O)[C@H]2O)c1-c1nc2ccccc2s1', 'pIC50', '=', 6.53),
  ('CC(C)(O)[C@H](F)CNC(=O)c1cnc(-c2cnc3cc(Cl)cnn23)cc1Nc1cnn(C(F)F)c1', 'pIC50', '=', 8.52),
  ('Cc1cc(Nc2nc(N[C@H]3CC[C@H](O)CC3)c3c(ccn3-c3cnn(C)c3)n2)sn1', 'pIC50', '≥', 7.00),
  ('Nc1cncc(-c2ccc3ncnc(N[C@H]4CC[C@H](N5CCOCC5)CC4)c3c2)c1', 'pIC50', '=', 9.00);
